- assayProcedure: Pharmacokinetic test in mice
- Assay type: in vivo
- testContext: both sexes, ICR, mouse, in vivo, po, 150 mg/kg intragastric administration, read-out: F (bioavailability)
- Excerpt: Experimental animals: Beijing Vital River Laboratory Animal Technology Co., Ltd., ICR mice, with a uniform body weight of 20-22 g, and half male and half female. […]
measurementType: bioavailability (%)
Please state the figure in %; there is no need to write the unit.

Entry `CO[C@H]1CN(c2ccc(C(C)(C)O)nn2)CC[C@H]1NC(=O)c1[nH]c(C)c(Cl)c1Cl` : reported bioavailability = ? 86

====

- assayProcedure: Pharmacokinetic test in mice
- Format: in vivo
- testContext: both sexes, ICR, mouse, plasma, po, 150 mg/kg intragastric administration, read-out: t½z (half-life period) (converted)
measurementType: half-life (h)
Please state the figure in h; there is no need to write the unit.

Entry `CO[C@H]1CN(c2ccc(C(C)(C)O)nn2)CC[C@H]1NC(=O)c1[nH]c(C)c(Cl)c1Cl` : reported half-life = ? 9.21

====

Property: MIC; scope: individual compounds
- System: Enterococcus faecalis ATCC 51575
- assayProcedure: In vitro antibacterial activity (MIC), microbroth dilution
- Type: cell-based
- testContext: ATCC51575, 37° C., 18 h
Please state the figure in µg/mL; there is no need to write the unit.

- compound: "CCc1[nH]c(C(=O)N[C@@H]2CCN(c3nnc(C(C)(C)O)s3)C[C@@H]2OC)nc1Cl [DS2969, reference compound]"
  MIC [µg/mL]: 0.5

Entry C[C@H]1COc2c(N3CCN(C)CC3)c(F)cc3c(=O)c(C(=O)O)cn1c23 [Levofloxacin, reference compound] : reported MIC = ? 0.5

====

- assayProcedure: Pharmacokinetic test in mice
- Format: in vivo
- testContext: both sexes, ICR, mouse, plasma, po, 150 mg/kg intragastric administration, read-out: MRT (0-48)
measurementType: MRT last (h)
Please state the figure in h; there is no need to write the unit.

Entry `CO[C@H]1CN(c2ccc(C(C)(C)O)nn2)CC[C@H]1NC(=O)c1[nH]c(C)c(Cl)c1Cl` : reported MRT last = ? 16.1

====

Property: MIC; scope: individual compounds
- Test system: Enterococcus faecium EFM 19-1
Please state the figure in µg/mL; there is no need to write the unit.

Query the reported MIC for Enterococcus faecium EFM 19-1; item: CCc1[nH]c(C(=O)N[C@@H]2CCN(c3nnc(C(C)(C)O)s3)C[C@@H]2OC)nc1Cl [DS2969, reference compound] 0.5

Query the reported MIC for Enterococcus faecium EFM 19-1; item: C[C@H]1COc2c(N3CCN(C)CC3)c(F)cc3c(=O)c(C(=O)O)cn1c23 [Levofloxacin, reference compound] 0.5

====

Property: MIC; scope: individual compounds
- System: Pseudomonas aeruginosa ATCC 27853
- assayProcedure: In vitro antibacterial activity (MIC), microbroth dilution
- Type: cell-based
- testContext: ATCC27853, 37° C., 18 h, read-out: MIC Pseudomonas aeruginosa ATCC 27853

Sample answers from the record:
- compound: "C[C@H]1COc2c(N3CCN(C)CC3)c(F)cc3c(=O)c(C(=O)O)cn1c23 [Levofloxacin, reference compound]"
  MIC: "2 µg/mL"
- compound: "CO[C@H]1CN(c2nnc(C(C)(C)O)s2)CC[C@H]1NC(=O)c1[nH]c(C)c(Cl)c1Cl"
  MIC: "8 µg/mL"
- compound: "CCc1[nH]c(C(=O)N[C@@H]2CCN(c3nnc(C(C)(C)O)s3)C[C@@H]2OC)nc1Cl [DS2969, reference compound]"
  MIC: "> 64 µg/mL"
- compound: "COC[C@H](C)NC(=O)c1nc(N2CC[C@@H](NC(=O)c3[nH]c(C)c(Cl)c3Cl)[C@@H](OC)C2)sc1C(=O)O"
  MIC: "> 64 µg/mL"

Query the reported MIC for Pseudomonas aeruginosa ATCC 27853; item: `CO[C@H]1CN(c2ccc(C(C)(C)O)nn2)CC[C@H]1NC(=O)c1[nH]c(C)c(Cl)c1Cl` 4 µg/mL
